Data origin, for the record: ChEMBL document CHEMBL1121923

Measured EC50 by item
Test system: P388
Experiment: Concentration required for 50% inhibition of incorporation of labeled uridine by P388 cells for the synthesis of RNA (in vitro)
Assay type: functional
Conditions: Mus musculus, read-out: ED50 (the source's name)
The number alone won't do; follow it with the unit.

Example entries begin here.
INSERT INTO measurements (entry_smiles, experimental_endpoint, data_value) VALUES
  ('Cc1c2oc3c(C)c(O)c(N)c(C(=O)N[C@@H]4C(=O)N[C@H](C(C)C)C(=O)N5CCC[C@H]5C(=O)N(C)CC(=O)N(C)[C@@H](C(C)C)C(=O)O[C@@H]4C)c3nc-2c(C(=O)N[C@@H]2C(=O)N[C@H](C(C)C)C(=O)N3CCC[C@H]3C(=O)N(C)CC(=O)N(C)[C@@H](C(C)C)C(=O)O[C@@H]2C)c/c1=N/Cc1ccccc1', 'EC50', '1400 nM'),
  ('Cc1c2oc3c(C)c(O)c(N)c(C(=O)N[C@@H]4C(=O)N[C@H](C(C)C)C(=O)N5CCC[C@H]5C(=O)N(C)CC(=O)N(C)[C@@H](C(C)C)C(=O)O[C@@H]4C)c3nc-2c(C(=O)N[C@@H]2C(=O)N[C@H](C(C)C)C(=O)N3CCC[C@H]3C(=O)N(C)CC(=O)N(C)[C@@H](C(C)C)C(=O)O[C@@H]2C)c/c1=N/Cc1ccc[nH]1', 'EC50', '184 nM');

Endpoint output: EC50 of Cc1c2oc3c(C)ccc(C(=O)N[C@@H]4C(=O)N[C@H](C(C)C)C(=O)N5CCC[C@H]5C(=O)N(C)CC(=O)N(C)[C@@H](C(C)C)C(=O)O[C@@H]4C)c3nc-2c(C(=O)N[C@@H]2C(=O)N[C@H](C(C)C)C(=O)N3CCC[C@H]3C(=O)N(C)CC(=O)N(C)[C@@H](C(C)C)C(=O)O[C@@H]2C)c(NCCCN)c1=O . Value?
118 nM

====

Measured MST by item
Tested on: P388
Test: Median survival time of the P388 cells implanted CDF1 male mice in vivo
Type: functional, Mus musculus
Number only, in days; omit the unit.

Example entries begin here.
INSERT INTO measurements (entry_smiles, units_of_measure, data_value) VALUES
  ('COc1cc(C(=O)N[C@@H]2C(=O)N[C@H](C(C)C)C(=O)N3CCC[C@H]3C(=O)N(C)CC(=O)N(C)[C@@H](C(C)C)C(=O)O[C@@H]2C)c2nc3c(C(=O)N[C@@H]4C(=O)N[C@H](C(C)C)C(=O)N5CCC[C@H]5C(=O)N(C)CC(=O)N(C)[C@@H](C(C)C)C(=O)O[C@@H]4C)c(N)c(=O)c(C)c-3oc2c1C', 'days', 19),
  ('CCCCCNc1c(C(=O)N[C@@H]2C(=O)N[C@H](C(C)C)C(=O)N3CCC[C@H]3C(=O)N(C)CC(=O)N(C)[C@@H](C(C)C)C(=O)O[C@@H]2C)c2nc3c(C(=O)N[C@@H]4C(=O)N[C@H](C(C)C)C(=O)N5CCC[C@H]5C(=O)N(C)CC(=O)N(C)[C@@H](C(C)C)C(=O)O[C@@H]4C)ccc(C)c3oc-2c(C)c1=O', 'days', 13),
  ('Cc1c2oc3c(C)ccc(C(=O)N[C@@H]4C(=O)N[C@H](C(C)C)C(=O)N5CCC[C@H]5C(=O)N(C)CC(=O)N(C)[C@@H](C(C)C)C(=O)O[C@@H]4C)c3nc-2c(C(=O)N[C@@H]2C(=O)N[C@H](C(C)C)C(=O)N3CCC[C@H]3C(=O)N(C)CC(=O)N(C)[C@@H](C(C)C)C(=O)O[C@@H]2C)c(NCCCCCCCCCCN)c1=O', 'days', 18),
  ('Cc1c2oc3c(C)c(OCc4ccc(Cl)cc4)cc(C(=O)N[C@@H]4C(=O)N[C@H](C(C)C)C(=O)N5CCC[C@H]5C(=O)N(C)CC(=O)N(C)[C@@H](C(C)C)C(=O)O[C@@H]4C)c3nc-2c(C(=O)N[C@@H]2C(=O)N[C@H](C(C)C)C(=O)N3CCC[C@H]3C(=O)N(C)CC(=O)N(C)[C@@H](C(C)C)C(=O)O[C@@H]2C)c(N)c1=O', 'days', 16),
  ('Cc1c2oc3c(C)c(OCc4ccc(Cl)c(Cl)c4)cc(C(=O)N[C@@H]4C(=O)N[C@H](C(C)C)C(=O)N5CCC[C@H]5C(=O)N(C)CC(=O)N(C)[C@@H](C(C)C)C(=O)O[C@@H]4C)c3nc-2c(C(=O)N[C@@H]2C(=O)N[C@H](C(C)C)C(=O)N3CCC[C@H]3C(=O)N(C)CC(=O)N(C)[C@@H](C(C)C)C(=O)O[C@@H]2C)c(N)c1=O', 'days', 19);

Endpoint output: MST of Cc1c2oc3c(C)c(O)c(N)c(C(=O)N[C@@H]4C(=O)N[C@H](C(C)C)C(=O)N5CCC[C@H]5C(=O)N(C)CC(=O)N(C)[C@@H](C(C)C)C(=O)O[C@@H]4C)c3nc-2c(C(=O)N[C@@H]2C(=O)N[C@H](C(C)C)C(=O)N3CCC[C@H]3C(=O)N(C)CC(=O)N(C)[C@@H](C(C)C)C(=O)O[C@@H]2C)cc1=O . Value?
24

Endpoint output: MST of CCCCNc1c(C(=O)N[C@@H]2C(=O)N[C@H](C(C)C)C(=O)N3CCC[C@H]3C(=O)N(C)CC(=O)N(C)[C@@H](C(C)C)C(=O)O[C@@H]2C)c2nc3c(C(=O)N[C@@H]4C(=O)N[C@H](C(C)C)C(=O)N5CCC[C@H]5C(=O)N(C)CC(=O)N(C)[C@@H](C(C)C)C(=O)O[C@@H]4C)ccc(C)c3oc-2c(C)c1=O . Value?
15

Endpoint output: MST of Cc1c2oc3c(C)c(OC(=O)c4ccccc4)cc(C(=O)N[C@@H]4C(=O)N[C@H](C(C)C)C(=O)N5CCC[C@H]5C(=O)N(C)CC(=O)N(C)[C@@H](C(C)C)C(=O)O[C@@H]4C)c3nc-2c(C(=O)N[C@@H]2C(=O)N[C@H](C(C)C)C(=O)N3CCC[C@H]3C(=O)N(C)CC(=O)N(C)[C@@H](C(C)C)C(=O)O[C@@H]2C)c(N)c1=O . Value?
20

Endpoint output: MST of CCCOc1cc(C(=O)N[C@@H]2C(=O)N[C@H](C(C)C)C(=O)N3CCC[C@H]3C(=O)N(C)CC(=O)N(C)[C@@H](C(C)C)C(=O)O[C@@H]2C)c2nc3c(C(=O)N[C@@H]4C(=O)N[C@H](C(C)C)C(=O)N5CCC[C@H]5C(=O)N(C)CC(=O)N(C)[C@@H](C(C)C)C(=O)O[C@@H]4C)c(N)c(=O)c(C)c-3oc2c1C . Value?
16

Endpoint output: MST of Cc1c2oc3c(C)ccc(C(=O)N[C@@H]4C(=O)N[C@H](C(C)C)C(=O)N5CCC[C@H]5C(=O)N(C)CC(=O)N(C)[C@@H](C(C)C)C(=O)O[C@@H]4C)c3nc-2c(C(=O)N[C@@H]2C(=O)N[C@H](C(C)C)C(=O)N3CCC[C@H]3C(=O)N(C)CC(=O)N(C)[C@@H](C(C)C)C(=O)O[C@@H]2C)c(NCCCCN)c1=O . Value?
23

Endpoint output: MST of CCCCOc1cc(C(=O)N[C@@H]2C(=O)N[C@H](C(C)C)C(=O)N3CCC[C@H]3C(=O)N(C)CC(=O)N(C)[C@@H](C(C)C)C(=O)O[C@@H]2C)c2nc3c(C(=O)N[C@@H]4C(=O)N[C@H](C(C)C)C(=O)N5CCC[C@H]5C(=O)N(C)CC(=O)N(C)[C@@H](C(C)C)C(=O)O[C@@H]4C)c(N)c(=O)c(C)c-3oc2c1C . Value?
14

Endpoint output: MST of Cc1c2oc3c(C)ccc(C(=O)N[C@@H]4C(=O)N[C@H](C(C)C)C(=O)N5CCC[C@H]5C(=O)N(C)CC(=O)N(C)[C@@H](C(C)C)C(=O)O[C@@H]4C)c3nc-2c(C(=O)N[C@@H]2C(=O)N[C@H](C(C)C)C(=O)N3CCC[C@H]3C(=O)N(C)CC(=O)N(C)[C@@H](C(C)C)C(=O)O[C@@H]2C)c(NCCCCCCCCN)c1=O . Value?
14
